// data source = paper doi:10.1101/2024.08.19.608619

# Tested on: HeLa-ACE2 cells
# MEASUREMENT_CONDITIONS: protocol HeLa-ACE2 cytotoxicity
REPORTED_PROPERTY: cc10

INSERT INTO results (molecule, reported_property, result) VALUES
  ('Cc1nn(C)cc1-c1cc2c(NC(c3ccc4c(c3)S(=O)(=O)CCC4)C(C)C)ncnc2[nH]1 (stereo not shown)', 'cc10', '> 20.0 µM'),
  ('CNCc1cc(-c2cc3c(N[C@@H](c4ccc5c(c4)S(=O)(=O)CCC5)C(C)C)ncnc3[nH]2)co1', 'cc10', '> 20.0 µM'),
  ('Cc1nn(C)cc1-c1cc2c(N[C@H](c3ccc4c(c3)S(=O)(=O)CCC4)C(C)C)ncnc2[nH]1 (single isomer, unassigned)', 'cc10', '> 20.0 µM'),
  ('CC(C)[C@H](Nc1ncnc2[nH]c(-c3cnn(CC(N)=O)c3)cc12)c1ccc2c(c1)S(=O)(=O)CCC2 (single isomer, unassigned)', 'cc10', '> 20.0 µM'),
  ('CC(C)[C@@H](Nc1ncnc2[nH]c(-c3cnn(CC(N)=O)c3)cc12)c1ccc2c(c1)OCCO2', 'cc10', '> 50.0 µM'),
  ('CC(C)[C@@H](Nc1ncnc2[nH]c(-c3cnn(C)c3C#N)cc12)c1ccc2c(c1)S(=O)(=O)CCC2 (single isomer, unassigned)', 'cc10', '> 20.0 µM'),
  ('CNC(=O)c1cc2c(N[C@@H](c3ccc4c(c3)S(=O)(=O)CCC4)C(C)C)ncnc2[nH]1 (single isomer, unassigned)', 'cc10', '> 20.0 µM'),
  ('CC(C)[C@@H](Nc1ncnc2[nH]c(-c3cnn(C)c3C#N)cc12)c1ccc2c(n1)OCCO2', 'cc10', '> 50.0 µM'),
  ('CNCc1cc(-c2cc3c(N[C@@H](c4ccc5c(c4)S(=O)(=O)NCC5)C(C)C)ncnc3[nH]2)co1', 'cc10', '> 20.0 µM'),
  ('Cn1ncc(-c2cc3c(N[C@@H](c4ccc5c(c4)OCCO5)C(C)(C)C)ncnc3[nH]2)c1C#N (racemic)', 'cc10', '> 20.0 µM'),
  ('CC(C)[C@@H](Nc1ncnc2[nH]c(-c3cnn(CC(N)=O)c3)cc12)c1ccc2c(c1)S(=O)(=O)CCC2', 'cc10', '> 20.0 µM'),
  ('CNC(=O)c1cccc(-c2cc3c(N[C@H](c4ccc5c(c4)S(=O)(=O)CCC5)C(C)C)ncnc3[nH]2)c1 (single isomer, unassigned)', 'cc10', '> 20.0 µM'),
  ('CNC(=O)c1cccc(-c2cc3c(N[C@@H](c4ccc5c(c4)S(=O)(=O)CCC5)C(C)C)ncnc3[nH]2)c1', 'cc10', '> 20.0 µM');

###

Listed next: entries and their corresponding microsomal CLint.
# MEASUREMENT_DESCRIPTION: Hepatic microsomal stability, HLM
# Type: in vitro ADME, human
# MEASUREMENT_CONDITIONS: liver microsomes; In vitro human liver microsomal stability
REPORTED_PROPERTY: microsomal CLint (µL/min/mg)

INSERT INTO measurements (molecule, readout_number) VALUES
  ('CCNC(=O)c1cc2c(NC(c3ccc4c(c3)OCCO4)C(C)C)ncnc2[nH]1 (stereo not shown)', 85),
  ('CC(C)C(Nc1ncnc2[nH]c(C(=O)NC3CCN(C)C3)cc12)c1ccc2c(c1)S(=O)(=O)CCC2 (stereo not shown)', 20),
  ('Cc1nn(C)cc1-c1cc2c(NC(c3ccc4c(c3)S(=O)(=O)CCC4)C(C)C)ncnc2[nH]1 (stereo not shown)', 273),
  ('CNC(=O)Cn1cc(-c2cc3c(NC(c4ccc5c(c4)OCCO5)C(C)C)ncnc3[nH]2)cn1 (stereo not shown)', 119);
